Target: Hepatic sodium/bile acid cotransporter (Homo sapiens)
Sequence (Q14973 whole entry): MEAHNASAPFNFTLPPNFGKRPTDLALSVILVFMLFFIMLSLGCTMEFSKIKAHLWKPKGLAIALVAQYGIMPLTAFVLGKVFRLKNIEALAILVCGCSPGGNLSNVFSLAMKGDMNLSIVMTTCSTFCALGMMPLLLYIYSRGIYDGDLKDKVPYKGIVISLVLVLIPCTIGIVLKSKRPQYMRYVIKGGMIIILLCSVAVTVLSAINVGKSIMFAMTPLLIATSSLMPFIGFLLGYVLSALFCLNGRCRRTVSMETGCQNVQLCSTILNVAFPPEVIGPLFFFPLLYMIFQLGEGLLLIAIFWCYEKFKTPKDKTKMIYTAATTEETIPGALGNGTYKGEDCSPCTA
pIC50: −log10 of the molar value.
Outcome label depends on pIC50 relative to 5: at/above gives true (1), below gives false (0).

Check out these entries, answers already filled in.
CC(C)NC[C@H](O)COc1cccc2ccccc12 | true (1)
CC(=O)N1CCN(c2ccc(OCC3COC(Cn4ccnc4)(c4ccc(Cl)cc4Cl)O3)cc2)CC1 (stereo not given) | false (0)

Prompt: Textbook exercise: given the entry CC(C)NCC(O)COc1cccc2ccccc12 (stereo not given) , state whether its pIC50 is greater than or equal to 5.
Completion: true (1)

Prompt: Answer whether pIC50 of C[C@H](CCC(=O)O)[C@H]1CC[C@H]2[C@@H]3[C@@H](O)C[C@@H]4C[C@H](O)CC[C@]4(C)[C@H]3CC[C@]12C is greater than or equal to 5.
Completion: true (1)
